# ASSAY METHOD TEXT: Phase I study, pharmacokinetic parameters after oral single dose and daily dose for 7 days
# Type: in vivo, human
# CONDITION SUMMARY: human, in vivo; single dose 10 mg, oral; read-out: Tmax time required to attain maximum concentration
REPORTED PROPERTY: Tmax (h)
One number for each entry, in h.

Look up Tmax: COc1ccc2[nH]c([S+]([O-])Cc3ncc(C)c(OC)c3C)nc2n1 (stereo not shown) 4

----------
# ASSAY METHOD TEXT: Phase I study, pharmacokinetic parameters after oral single dose and daily dose for 7 days
# Assay type: in vivo, human
# CONDITION SUMMARY: human, in vivo; single dose 40 mg, oral; read-out: Tmax time required to attain maximum concentration
REPORTED PROPERTY: Tmax (h)
Numbers only, in h.

Entry under review: COc1ccc2[nH]c([S+]([O-])Cc3ncc(C)c(OC)c3C)nc2n1 (stereo not shown) . Reported Tmax? 3

----------
# ASSAY METHOD TEXT: Phase I study, pharmacokinetic parameters after oral single dose and daily dose for 7 days
# Type: in vivo, human
# CONDITION SUMMARY: human, in vivo, po, 10 mg, repeated dose (7 days) 10 mg daily, oral; read-out: AUC 0-t area under the curve, between time 0 and the last measurable concentration
REPORTED PROPERTY: AUC(0-t) (ng·h/mL)
Numbers only, in ng·h/mL.

Any idea what AUC(0-t) was measured for COc1ccc2[nH]c([S+]([O-])Cc3ncc(C)c(OC)c3C)nc2n1 (stereo not shown) ? 13000

Data credit: patent US20110152314A1
